Quick list: kon per entry.
Molecular target: T1, huCD46-His (human, UniProt P15529 35-343)
T1 construct: extracellular domain; Immobilised by amine coupling on the SPR chip; It may be the same protein as the ELISA antigen; also called Human CD46-His; human CD46; not shown: His tag
T1 sequence (looked up): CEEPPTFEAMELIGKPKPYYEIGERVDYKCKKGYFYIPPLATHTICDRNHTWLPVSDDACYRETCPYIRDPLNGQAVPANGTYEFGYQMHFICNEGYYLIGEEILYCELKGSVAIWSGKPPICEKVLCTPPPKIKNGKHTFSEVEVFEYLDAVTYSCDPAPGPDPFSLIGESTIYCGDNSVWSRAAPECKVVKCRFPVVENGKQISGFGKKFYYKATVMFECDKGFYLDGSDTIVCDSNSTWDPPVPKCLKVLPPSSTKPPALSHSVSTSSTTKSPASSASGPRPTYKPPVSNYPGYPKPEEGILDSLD
Assay: SPR, huCD46-His immobilised, antibody as analyte, pH 6.0
Report as a plain number; the unit M⁻¹ s⁻¹ is understood.

Solved entries (count: 3):
BA-133-04-03 (antibody, V domains shown, also called CPE hit BA133-04-03) VH: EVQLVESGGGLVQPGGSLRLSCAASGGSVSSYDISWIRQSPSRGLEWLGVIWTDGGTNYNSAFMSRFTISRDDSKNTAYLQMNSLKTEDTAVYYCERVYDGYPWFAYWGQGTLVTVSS VL: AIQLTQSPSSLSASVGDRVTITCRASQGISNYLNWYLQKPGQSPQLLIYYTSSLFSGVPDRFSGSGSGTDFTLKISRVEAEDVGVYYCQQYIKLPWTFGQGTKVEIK = 1.18e+06
BAP133-2-02-12 (antibody, V domains shown, also called BAP133-02-02-12; CPE hit BAP133-2-02-12) VH: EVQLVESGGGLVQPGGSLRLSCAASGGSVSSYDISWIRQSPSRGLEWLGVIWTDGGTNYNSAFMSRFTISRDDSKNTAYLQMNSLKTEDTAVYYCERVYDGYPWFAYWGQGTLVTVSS VL: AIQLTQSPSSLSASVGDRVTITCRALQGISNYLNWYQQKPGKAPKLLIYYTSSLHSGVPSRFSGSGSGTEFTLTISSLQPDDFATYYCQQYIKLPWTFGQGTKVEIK = 539000
BAP133-2-03-03-SL (antibody, V domains shown, the killing assays used the ADC form; also called BAP133-02-03-03-SL; CPE hit BAP133-2-03-03-SL) VH: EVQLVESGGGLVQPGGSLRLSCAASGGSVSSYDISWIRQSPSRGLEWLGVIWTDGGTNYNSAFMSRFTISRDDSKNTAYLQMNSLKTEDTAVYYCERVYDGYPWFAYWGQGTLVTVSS VL: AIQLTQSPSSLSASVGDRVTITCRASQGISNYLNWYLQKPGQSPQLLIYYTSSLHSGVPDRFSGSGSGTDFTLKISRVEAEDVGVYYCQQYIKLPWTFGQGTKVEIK = 388000

BA-133-04-04 (antibody, V domains shown, the killing assays used the ADC form; also called CPE hit BA133-04-04) VH: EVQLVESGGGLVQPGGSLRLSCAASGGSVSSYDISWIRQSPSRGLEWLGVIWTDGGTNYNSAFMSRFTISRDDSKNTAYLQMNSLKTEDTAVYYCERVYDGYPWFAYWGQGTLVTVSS VL: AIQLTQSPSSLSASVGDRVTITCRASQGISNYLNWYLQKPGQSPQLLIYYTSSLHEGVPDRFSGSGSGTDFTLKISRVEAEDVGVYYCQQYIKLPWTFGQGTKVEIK has a reported kon of 824000
